# measurementDescription: qHTS profiling for inhibitors of Plasmodium falciparum proliferation (AID 504749);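 note: 0% = DMSO vehicle and full inhibition = artemisinin control; nearly all actives have a fitted effect of over 60% in size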
# conditionSet: P. falciparum in erythrocytes, SYBR Green DNA, 72 h; at 28.7 µM (top of the series); parasite line B
Records with an inconclusive call do not appear.
recordedMetric: activity, negative = inhibition (%)
# number only, unit % dropped from output

Check the records and state activity, negative = inhibition for O=C1C2CC=CCC2C(=O)N1SC(Cl)(Cl)Cl (stereo unspecified)
5.29

Check the records and state activity, negative = inhibition for C=CCN1CCC23c4c5ccc(O)c4O[C@H]2C(=O)CC[C@@]3(O)C1C5 (stereo partly specified)
-7.58

Check the records and state activity, negative = inhibition for "O=P(O)(O)C(Cl)(Cl)P(=O)(O)O"
14

Let us move to another entry and its activity, negative = inhibition.
Check the records and state activity, negative = inhibition for CCCCNCC(O)c1ccc(O)cc1 (stereo unspecified)
-2.79

----------
# targetUnderTest: Arylsulfatase A (Homo sapiens) (UniProt P15289)
# Sequence (P15289 whole entry, looked up): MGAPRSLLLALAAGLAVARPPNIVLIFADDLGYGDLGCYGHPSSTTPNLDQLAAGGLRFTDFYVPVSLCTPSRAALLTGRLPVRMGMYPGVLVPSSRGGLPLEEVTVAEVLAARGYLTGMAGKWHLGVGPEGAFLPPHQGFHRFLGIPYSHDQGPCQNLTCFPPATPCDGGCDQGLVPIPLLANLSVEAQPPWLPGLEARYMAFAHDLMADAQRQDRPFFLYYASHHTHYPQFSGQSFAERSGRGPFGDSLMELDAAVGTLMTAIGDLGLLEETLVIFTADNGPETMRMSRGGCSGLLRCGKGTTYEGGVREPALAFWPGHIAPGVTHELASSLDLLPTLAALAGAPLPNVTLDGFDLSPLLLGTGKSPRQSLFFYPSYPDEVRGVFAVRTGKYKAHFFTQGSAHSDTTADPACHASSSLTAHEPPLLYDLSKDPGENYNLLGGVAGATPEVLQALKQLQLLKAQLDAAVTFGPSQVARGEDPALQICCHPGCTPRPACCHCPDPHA
# measurementDescription: qHTS screen for enhancers of Arylsulfatase A (ASA1): LOPAC Validation Assay (AID 720538)
# conditionSet: ASA enzyme activity, LOPAC qHTS enhancer assay; series mostly up to 57.5 µM
Results filed as inconclusive are left out. The source made the active and inactive calls. The call rests on the fitted dose curve; in most records, active means well fitted activation curve with a large enough effect; inconclusive means small, poorly fitted or top-dose-only effect; inactive means no such curve, though single readings can be large or run the other way.
Field 'call' accepts 1.0 (active), 0.0 (inactive)

Worked set:
Assay outcome for CC(N)Cc1c[nH]c2ccc(O)cc12 (configuration not stated) : what was it?
1.0

Assay outcome for Ic1ccccc1CNC1C2CCN(CC2)C1C(c1ccccc1)c1ccccc1 (configuration not stated) : what was it?
0.0

Assay outcome for "C[N+]1(C)CCc2cc3c(cc2[C@H]1[C@@H]1OC(=O)c2c1ccc1c2OCO1)OCO3" : what was it?
0.0

***
Assay outcome for "NC(=O)CI" : what was it?
0.0

Assay outcome for "NCCc1ccc(S(=O)(=O)F)cc1" : what was it?
0.0

Assay outcome for "O=[N+]([O-])c1cc(O)c(O)c([N+](=O)[O-])c1" : what was it?
1.0

Assay outcome for "C[C@H](N)Cc1cccc(C(F)(F)F)c1" : what was it?
0.0

Assay outcome for "Nc1ccc(CCN2CCN(c3cccc(C(F)(F)F)c3)CC2)cc1" : what was it?
0.0

----------
# targetUnderTest: Peptidyl-prolyl cis-trans isomerase NIMA-interacting 1 (Homo sapiens)
# measurementDescription: qHTS Validation Assay to Find Inhibitors of Pin1 (AID 504536)
# conditionSet: Pin1 fluorescence polarization peptide binding assay; series mostly up to 57.5 µM
Records with an inconclusive call do not appear. The source made the active and inactive calls. Calls come from the whole dose curve; as a rule, active = well fitted inhibition curve with a large enough effect in the polarisation, with a control signal flat (not every such curve was filed as active); inconclusive = small, poorly fitted or top-dose-only effect, or effect the other way; inactive = flat fitted curve, though single readings scatter; the % refers to the polarisation.
Field 'call' accepts 1.0 = active, 0.0 = inactive

Worked set:
Assay outcome for CC(N)c1cccc(Cl)c1Cl (centres undefined) : what was it?
0.0

Assay outcome for O=C1CC[C@@]2(O)C3Cc4ccc(O)c5c4C2(CCN3CC2CC2)[C@H]1O5 (some centres undefined) : what was it?
0.0

Assay outcome for CC1(C(=O)O)C2CCC(O2)C1(C)C(=O)O (centres undefined) : what was it?
0.0

Assay outcome for NCC(O)c1cc(O)c(O)cc1F (centres undefined) : what was it?
0.0

Assay outcome for "C[C@H](N)CN1CCc2ccc(Br)cc21" : what was it?
0.0

Assay outcome for "NC(=O)c1cc(N2CC2)c([N+](=O)[O-])cc1[N+](=O)[O-]" : what was it?
0.0

Assay outcome for "NC(=O)CI" : what was it?
0.0

Assay outcome for "CCCN(CCC)[C@@H]1CCc2cccc(O)c2C1" : what was it?
0.0

***
Assay outcome for "CC(C)(C)c1cc(C=C(C#N)C#N)cc(C(C)(C)C)c1O" : what was it?
0.0

Assay outcome for "CP(=O)(O)C1=CCNCC1" : what was it?
0.0

Assay outcome for NC(Cc1cc(O)c(O)cc1O)C(=O)O (centres undefined) : what was it?
1.0

Assay outcome for "CN(N=O)c1ccc(O)c(O)c1" : what was it?
1.0

Assay outcome for "N[C@@]1(C(=O)O)CC[C@@H](C(=O)O)C1" : what was it?
0.0

Assay outcome for NC(C(=O)O)c1cc(=O)[nH]o1 (centres undefined) : what was it?
0.0

----------
# targetUnderTest: Thioredoxin reductase 1, cytoplasmic (Rattus norvegicus) (UniProt O89049)
# Sequence (O89049 whole entry, looked up): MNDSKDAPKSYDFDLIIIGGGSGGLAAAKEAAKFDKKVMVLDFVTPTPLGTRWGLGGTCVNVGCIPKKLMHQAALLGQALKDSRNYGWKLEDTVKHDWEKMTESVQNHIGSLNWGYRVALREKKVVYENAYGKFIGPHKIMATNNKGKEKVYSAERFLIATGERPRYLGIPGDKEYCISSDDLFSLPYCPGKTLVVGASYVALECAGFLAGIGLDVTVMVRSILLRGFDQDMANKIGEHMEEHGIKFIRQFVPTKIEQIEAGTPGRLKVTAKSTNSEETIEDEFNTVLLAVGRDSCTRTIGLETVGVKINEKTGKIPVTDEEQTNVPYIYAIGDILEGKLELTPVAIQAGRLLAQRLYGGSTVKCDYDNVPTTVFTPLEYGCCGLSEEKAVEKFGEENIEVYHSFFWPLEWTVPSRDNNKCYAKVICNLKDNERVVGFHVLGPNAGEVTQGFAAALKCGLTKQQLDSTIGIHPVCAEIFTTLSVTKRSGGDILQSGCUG
# measurementDescription: qHTS Assay for Inhibitors of Mammalian Selenoprotein Thioredoxin Reductase 1 (TrxR1) (AID 488773); note: nearly all actives have a fitted effect of over 40% in size
# conditionSet: purified TrxR1 enzyme activity; inhibition; series mostly up to 57.1 µM
Records with an inconclusive call do not appear. Calls of active or inactive are those of the source. Calls follow the shape of the dose curve; as a rule, active = well fitted inhibition curve with a large enough effect; inconclusive = small, poorly fitted or top-dose-only effect; inactive = no such curve, though single readings can be large or run the other way.
Field 'call' accepts active, inactive

Assay outcome for "CC(=O)OCC1=C(C(=O)O)N2C(=O)[C@@H](NC(=O)CCC[C@@H](N)C(=O)O)[C@H]2SC1" : what was it?
inactive

***
Assay outcome for CC(N)[C@H](O)c1ccc(O)c(O)c1 (stereo not given in full) : what was it?
active

Assay outcome for CC(N)Cc1c[nH]c2ccc(OCc3cccs3)cc12 (stereo not given) : what was it?
inactive

Assay outcome for "COc1ccc2[nH]c3c(c2c1)CCNC3" : what was it?
inactive

Assay outcome for "C=CCN1CC[C@]23c4c5ccc(O)c4O[C@@H]2/C(=N/N=C2\CC[C@@]4(O)C6Cc7ccc(O)c8c7[C@@]4(CCN6CC=C)[C@@H]2O8)CC[C@@]3(O)C1C5" : what was it?
active

----------
# measurementDescription: Primary qHTS for inhibitors of SARS-S pseudo-typed particle cell entry (AID 1479145); note: % is set by controls: 0 for no effect and ±100 for the full control effect; nearly all actives have a fitted effect of over 45% in size
# conditionSet: SARS-S pseudotyped particle cell entry, luciferase reporter; at 57.1 µM (top of the series) unless noted; series mostly up to 57.1 µM
Inconclusive results are not listed. Activity calls are given as the source filed them. The call rests on the fitted dose curve.
recordedMetric: outcome

Check the records and state outcome for "O=S(=O)(O)c1cc(O)ccc1O"
inactive

Check the records and state outcome for CC1CCC(C(C)C)C(OC(=O)c2ccccc2N)C1 (stereo not drawn)
inactive

Check the records and state outcome for "C[C@@H](CO)NC(=O)[C@@H]1C=C2c3cccc4[nH]cc(c34)C[C@H]2N(C)C1"
inactive

----------
# System: CP211
# measurementDescription: qHTS profiling for inhibitors of Plasmodium falciparum proliferation (AID 504749);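 note: 0% = DMSO vehicle and full inhibition = artemisinin control; nearly all actives have a fitted effect of over 60% in size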
# conditionSet: P. falciparum in erythrocytes, SYBR Green DNA, 72 h; series mostly up to 28.7 µM
Records with an inconclusive call do not appear. Calls of active or inactive are those of the source. The call rests on the fitted dose curve; in most records, active means well fitted inhibition curve with a large enough effect; inconclusive means small, poorly fitted or top-dose-only effect; inactive means flat fitted curve, though single readings scatter.
Field 'call' accepts y for active, n for inactive

Worked set:
Assay outcome for "CCC(C)(S(=O)(=O)CC)S(=O)(=O)CC" : what was it?
n

Assay outcome for "CCC1(CC)C(=O)NC(=O)N(C)C1=O" : what was it?
n

Assay outcome for NCC(O)c1cccc(O)c1 (centres undefined) : what was it?
n

***
Assay outcome for CCC1(c2ccccc2)C(=O)NC(=O)N(C(=O)c2ccccc2)C1=O (centres undefined) : what was it?
n

Assay outcome for "CCC1(C)CC(=O)NC(=O)C1" : what was it?
n

Assay outcome for CC(C)(O)C1C2OC(=O)C1C1(O)CC3OC34C(=O)OC2C14C (centres undefined) : what was it?
n

----------
# measurementDescription: Confirmatory screen GU Rhodamine qHTS for Zika virus inhibitors qHTS (AID 1347157); note: nearly all actives have a fitted effect of over 70% in size
# conditionSet: purified enzyme assay, Rhodamine110 substrate fluorescence, 15 min; series mostly up to 114 µM
Results filed as inconclusive are left out. Active and inactive are the calls of the source. The call rests on the fitted dose curve; in most records, active means well fitted inhibition curve with a large enough effect; inconclusive means small, poorly fitted or top-dose-only effect; inactive means flat fitted curve, though single readings scatter.
Field 'call' accepts active, inactive

Worked set:
Assay outcome for "C[C@@]1(C(=O)O)CC[C@]2(C)CC[C@]3(C)C4=CC(=O)c5cc(O)c(O)cc5[C@]4(C)CC[C@@]3(C)[C@@H]2C1" : what was it?
active

Assay outcome for COc1c(C(C)C)cc2c(c1O)[C@@]1(C(=O)O)CCCC(C)(C)C1CC2 (stereo not given in full) : what was it?
active

Assay outcome for "Oc1cc(Cl)c(Cl)cc1Cl" : what was it?
inactive

Assay outcome for "CC(=O)c1c(O)c(C)c(O)c(Cc2c(O)c3c(c(C(=O)/C=C/c4ccccc4)c2O)OC(C)(C)C=C3)c1O" : what was it?
active

Field: next molecule
Assay outcome for CCN1CC2(COC)C3[C@@H](OC)C4C1C3(C1C[C@]3(O)[C@H](OC(=O)c5ccccc5)C1[C@]4(OC(C)=O)[C@@H](O)[C@@H]3OC)[C@H](OC)C[C@H]2O (stereo not given in full) : what was it?
inactive

----------
# Tested on: CAOV3
# measurementDescription: Primary qHTS to identify gynecologic anti-cancer compounds using libraries of approved drugs and bioactive compounds (AID 1345084); note: % is set by controls: 0 for no effect and ±100 for the full control effect; nearly all actives have a fitted effect of over 55% in size
# conditionSet: Gynecologic cancer cell panel viability, ATPlite luminescence, 48 h; series mostly up to 57.5 µM
# Excerpt: National Center for Advancing Translational Sciences [NCATS] Assay Overview: Chemotherapeutic drug responses vary from cancer to cancer and from patient to patient. […] ATPlite is a luminescence based assay reliant on the conversion of a luciferase substrate to light in the presence of ATP. As a cytotoxic compound will suppress growth and decrease the number of cells, the concentration of ATP will decrease, and less light signal will be detected in the well. […]
Records with an inconclusive call do not appear. Activity calls are given as the source filed them. Calls come from the whole dose curve; as a rule, active = well fitted cell-killing curve with a large enough effect; inconclusive = small, poorly fitted or top-dose-only effect, or effect the other way; inactive = flat fitted curve, though single readings scatter.
recordedMetric: activity change, negative = cytotoxicity

Some compounds with recorded activity change, negative = cytotoxicity:
Check the records and state activity change, negative = cytotoxicity for CC(CCc1ccc(O)cc1)O[C@@H]1O[C@H](CO[C@H]2OC[C@](O)(CO)[C@H]2O)[C@@H](O)[C@H](O)[C@H]1O (some centres not stated)
inactive

Check the records and state activity change, negative = cytotoxicity for "C=C(CO)C(=O)O[C@H]1C/C(C)=C/CC/C(CO)=C/[C@H]2OC(=O)C(=C)[C@H]12"
inactive

Check the records and state activity change, negative = cytotoxicity for "C=C(C)[C@H]1O[C@H]2CC[C@@]3(C)[C@@](O)(CC[C@H]4[C@@H]5OC(C)(C)[C@H]6C[C@@H]7C(=C)Cc8c(Cl)cc9[nH]c(c5c9c8[C@@]76O)[C@@]43C)[C@]23O[C@@H]3[C@H]1O"
inactive

Check the records and state activity change, negative = cytotoxicity for "CN(C)CCc1c[nH]c2ccc(CN3CCN(C)S3(=O)=O)cc12"
inactive

Check the records and state activity change, negative = cytotoxicity for "CC1=C2C[C@H]3[C@@H](CC=C4C[C@@H](O)CC[C@@]43C)[C@@H]2CC[C@]12O[C@@H]1C[C@H](C)CN[C@H]1[C@H]2C"
inactive

Check the records and state activity change, negative = cytotoxicity for "COc1cc(CCNCc2ccccc2O)c(OC)cc1C#N"
inactive

***
Check the records and state activity change, negative = cytotoxicity for "C=C[C@H]1[C@H](O[C@@H]2O[C@H](CO)[C@@H](O)[C@H](O)[C@H]2O)OC=C2C(=O)OCC[C@H]21"
inactive
